- Test system: EGFR vIII Ba/F3
- test protocol: CellTiter-Glo cell viability, EGFR vIII Ba/F3
- Format: cell-based
- setup conditions: Mus musculus, BaF3, 72 h, read-out: EGFR vIII Ba/F3 CTG IC50 /
reported property: IC50

Give IC50 (EGFR vIII Ba/F3) of the following compound: `C=CC(=O)Nc1cc(-c2c(-c3cnn(CCN(C)C)c3)[nH]c3ncc(C(=O)OC(C)C)c(C)c23)ccc1C` 50 to 100 nM

What IC50 appears in the records for this compound with EGFR vIII Ba/F3? `C=CC(=O)Nc1cc(-c2c(-c3cnn(C4CC4)c3)[nH]c3ncc(C(=O)OC(C)C)c(C)c23)ccc1C` 100 to 500 nM

Which IC50 is reported with EGFR vIII Ba/F3 for this entry: C=CC(=O)Nc1cc(-c2c(-c3cnn(C)c3)[nH]c3ncc(O[C@@H](C)CC)cc23)ccc1C [Example 12, 2,2,2-trifluoroacetate] ? 100 to 500 nM

Query the reported IC50 for EGFR vIII Ba/F3; item: `C=CC(=O)Nc1cc(-c2c(-c3cn(C)cn3)[nH]c3ncc(C(=O)OC(C)C)c(C)c23)ccc1C` 50 to 100 nM

Enter reported IC50 observed with EGFR vIII Ba/F3 for `C=CC(=O)Nc1cc(-c2c(-c3cnn(C(C)C)c3)[nH]c3ncc(C(=O)OC(C)C)c(C)c23)ccc1C` 100 to 500 nM

# value lookup — system EGFR vIII Ba/F3, readout IC50, item `C=CC(=O)Nc1cc(-c2c(-c3cnn(CC4CC4)c3)[nH]c3ncc(C(=O)OC(C)C)c(C)c23)ccc1C` 100 to 500 nM

Recorded IC50 for `C=CC(=O)Nc1cc(-c2c(-c3cnn(C)c3)[nH]c3ncc(-c4cnn(CC)c4)cc23)ccc1C` with EGFR vIII Ba/F3, please? ≤ 50 nM

These entries and their values trace back to patent EP3868759A1.
